System: HT-29
assay-comment: Growth inhibition of combretastatin A-4 resistant human HT-29 cells after 24 hrs by MTT assay
Type: functional, cell-based
stated-conditions: HT-29, 24 h
Below, each of the compounds is paired with its reported IC50 value.
Supply the numeric figure in nM, leaving out any unit text.

CCn1cc(Cl)c2cc(-c3c(-c4cc(OC)c(OC)c(OC)c4)ncn3C)ccc21; 75.8
COc1cc(-c2ncn(C)c2-c2ccc3c(c2)c(Cl)cn3C)cc(OC)c1OC; 26.2
CCn1cc(Cl)c2cc(-c3c(-c4cc(I)c(OC)c(OC)c4)ncn3C)ccc21; 482

Provide only the value of recorded IC50 for "COc1cc(-c2ncn(C)c2-c2ccc3c(c2)c(Cl)c(Cl)n3C)cc(Br)c1OC" 903

Please look at this compound and report its IC50: "COc1cc(-c2ncn(C)c2-c2ccc3c(c2)c(Cl)cn3C)cc(Br)c1OC.Cl" 31.3

Give the measured IC50 for "COc1cc(-c2ncn(C)c2-c2ccc3c(c2)c(Cl)cn3C)cc(Cl)c1OC" 33.7

Give a short answer stating reported IC50 for "COc1cc(-c2ncn(C)c2-c2ccc3c(c2)c(Cl)cn3C)cc(I)c1OC" . 35.1

In one line, give reported IC50 of the entry "CCn1cc(Cl)c2cc(-c3c(-c4cc(Br)c(OC)c(OC)c4)ncn3C)ccc21" . 246
